Sourced from the supplement of paper PMC10567573

B1: ELF3 (parent)
chain: RLVYKFGKNSSGWKEEEVLQSRN

variants of: B1; experiment: protein stability index of a GFP-peptide fusion (GPS, HEK-293T) (PSI 1-6); higher = more stable; conditions: c terminus: native;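 note: lentivirally expressed fusions sorted by FACS into six bins by GFP to DsRed ratio, PSI derived from sequencing read proportions per bin multiplied by bin number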
Please provide measured protein stability index for the entries that follow.
Answer as a number with no unit attached.

Inquiry: If you can, please state the reported protein stability index value of L19G .
Reply text: 3.19

Inquiry: Would you mind telling me what protein stability index value was observed for R22Q ?
Reply text: 3.02

Inquiry: Given V18T , state its recorded protein stability index.
Reply text: 2.16

Inquiry: Look up protein stability index for this variant: W13L
Reply text: 4.02

Inquiry: Reported protein stability index for E15Q : what is it?
Reply text: 1.76

Inquiry: What value of protein stability index has been reported for the following variant? S10Q
Reply text: 2.51

Inquiry: Return reported protein stability index; argument: F6I
Reply text: 2.26

Inquiry: Bench note: what protein stability index did F6A show?
Reply text: 3.69

Inquiry: Look up protein stability index for this variant: S21N
Reply text: 2.49

Inquiry: Name the reported protein stability index value associated with the variant S21D
Reply text: 3.56

Inquiry: Please give the measured protein stability index for this variant: G12T
Reply text: 1.87

Inquiry: Which measured protein stability index value corresponds to K14P ?
Reply text: 2.58

Inquiry: # input variant: Y4D ; wanted: its protein stability index
Reply text: 3.73

Inquiry: Data request, read-out protein stability index, for S10D
Reply text: 3.25

Inquiry: What protein stability index value was documented for this variant, G12N ?
Reply text: 1.98

Inquiry: Could you tell me which protein stability index is on file for E17Y ?
Reply text: 2.98

Inquiry: Need protein stability index, item S10Y
Reply text: 1.56

Inquiry: What value of measured protein stability index is listed for S21I ?
Reply text: 2.41

Inquiry: Look up protein stability index: S11E
Reply text: 3.01

Inquiry: For N23A , what is its reported protein stability index?
Reply text: 2.28

Inquiry: Quick one: protein stability index for V3S ?
Reply text: 2.7

Inquiry: What measured protein stability index goes with Q20K ?
Reply text: 1.25

Inquiry: Record request: protein stability index value, item V3H
Reply text: 2.53

Inquiry: Record request: protein stability index value, item K8C
Reply text: 2.85

Inquiry: Which measured protein stability index value corresponds to N23G ?
Reply text: 2

Inquiry: # query: protein stability index of entry F6V
Reply text: 3.89

Inquiry: What value of protein stability index has been reported for the following variant? R1N
Reply text: 3

Inquiry: Suppose we examine the variant K5M ; what protein stability index value has been reported?
Reply text: 1.91

Inquiry: Query (variant): V18M ; field requested: protein stability index
Reply text: 1.84

Inquiry: Using the record for N23Q , report its protein stability index.
Reply text: 1.87

Inquiry: What measured protein stability index goes with N9F ?
Reply text: 1.98

Inquiry: Item under review: G7D . Reported protein stability index?
Reply text: 4.11

Inquiry: Item under review: Q20M . Reported protein stability index?
Reply text: 2.06

Inquiry: Query (variant): S11Y ; field requested: protein stability index
Reply text: 2.21

Inquiry: Need protein stability index, item L2D
Reply text: 4.22

Inquiry: Which protein stability index is listed for K5H ?
Reply text: 1.98

Inquiry: protein stability index lookup needed for N9G , thanks.
Reply text: 1.9

Inquiry: // lookup protein stability index for Y4N
Reply text: 3.13

Inquiry: For the variant shown here, E17S , give the reported protein stability index.
Reply text: 1.13

Inquiry: // protein stability index lookup, key: Y4L
Reply text: 1.83

Inquiry: Entry N9Y : reported protein stability index = ?
Reply text: 1.25

Inquiry: Returns the measured protein stability index for the input variant. Input: S21V
Reply text: 1.82

Inquiry: Would you kindly share the measured protein stability index for F6N ?
Reply text: 3.65

Inquiry: Bench note: what protein stability index did S11I show?
Reply text: 1.54

Inquiry: Data request, read-out protein stability index, for R1H
Reply text: 2.72

Inquiry: # get_value(readout='protein stability index', item= E15H )
Reply text: 2.81

Inquiry: Quick one: protein stability index of L19E ?
Reply text: 4.05

Inquiry: What measured protein stability index goes with F6Y ?
Reply text: 2.45

Inquiry: Sample G7R — what was its protein stability index?
Reply text: 2.29

Inquiry: Requested read-out: protein stability index. Entry: S11R
Reply text: 2.05

Inquiry: For the variant E15A , what protein stability index is on record?
Reply text: 1.43

Inquiry: Given the entry E16V , report its measured protein stability index.
Reply text: 1.04

Inquiry: Bench note: what protein stability index did R1L show?
Reply text: 1.83
